- Protocol text: Prodrug stability in simulated intestinal fluid
- Assay context: 37° C., pH 6.8, HPLC
Measured attribute: % prodrug remaining following incubation for 2 h in simulated intestinal fluid pH 6.8 (%)

Before answering, review these 5 worked examples.
>>> df
                                   compound  recorded_number
0  CC(C)[C@@H](N)C(=O)NCCOC(=O)NC(=N)NC(=O)Cc1c(Cl)cccc1Cl              111
1  C[C@@H]1N=C(NC(=O)Cc2c(Cl)cccc2Cl)NC1=O [Compound 39, Guanfacine-(S)-AlanineCyclic Adduct]              104
2  CC(C)[C@H](N)C(=O)N[C@@H](COC(=O)NC(=N)NC(=O)Cc1c(Cl)cccc1Cl)C(=O)O               78
3  CC(C)[C@H](N)C(=O)N[C@H](C(=O)O)[C@@H](C)OC(=O)NC(=N)NC(=O)Cc1c(Cl)cccc1Cl              100
4  CC(C)[C@H](NC(=O)CC(C)(C)CC(=O)NC(=N)NC(=O)Cc1c(Cl)cccc1Cl)C(=O)O               99

A: N=C(NC(=O)Cc1c(Cl)cccc1Cl)NC(=O)Nc1ccc(C(=O)O)cc1
B: CNCC(=O)N[C@@H](CCC(=O)NC(=N)NC(=O)Cc1c(Cl)cccc1Cl)C(=O)O
Query string: Could you kindly indicate whether A or B has the higher % prodrug remaining following incubation for 2 h in simulated intestinal fluid pH 6.8 value? Lab note: record the label of whichever item you select.
Result string: A

###

- Protocol text: Prodrug stability in simulated gastric fluid
- Assay context: 37° C., pH 1.1, HPLC
Measured attribute: % prodrug remaining following incubation for 1 h in simulated gastric fluid pH 1.1 (%)

In [3]: df
Out[3]:
                                   compound  recorded_number
0  N=C(NC(=O)CCCNC(=O)[C@@H]1CCC(=O)N1)NC(=O)Cc1c(Cl)cccc1Cl               98
1  N=C(NC(=O)Cc1c(Cl)cccc1Cl)NC(=O)c1ccc(N)cc1 [Compound 52, Guanfacine PABA Amide]               84
2  CC(C)C[C@@H](N)C(=O)N[C@@H](CCC(=O)NC(=N)NC(=O)Cc1c(Cl)cccc1Cl)C(=O)O               70
3  CNCC(=O)N[C@@H](CCOC(=O)NC(=N)NC(=O)Cc1c(Cl)cccc1Cl)C(=O)O               86

###

- Protocol text: Prodrug stability in simulated gastric fluid
- Assay context: 37° C., pH 1.1, HPLC
Measured attribute: % prodrug remaining following incubation for 1 h in simulated gastric fluid pH 1.1 (%)

Some solved entries appear below for comparison.
>>> df
                                   compound  recorded_number
0  CC(C)[C@@H](N)C(=O)N[C@H](CCC(=O)NC(=N)NC(=O)Cc1c(Cl)cccc1Cl)C(=O)O [Compound 31]               70
1  CC(C)[C@@H](N)C(=O)NCCC(=O)NC(=N)NC(=O)Cc1c(Cl)cccc1Cl [Compound 11, Guanfacine (β-Alanine-(R)-Valine) Amide]               79
2  CC[C@H](C)[C@H](N)C(=O)NCCOC(=O)NC(=N)NC(=O)Cc1c(Cl)cccc1Cl [Compound 59]               92

P: CC(C)[C@@H](N)C(=O)N[C@H](C(=O)O)[C@@H](C)OC(=O)NC(=N)NC(=O)Cc1c(Cl)cccc1Cl [Compound 21]
Q: O=C(O)CC[C@@H]1N=C(NC(=O)Cc2c(Cl)cccc2Cl)NC1=O [Compound 37, Guanfacine-(S)-Glutamic Cyclic Adduct]
Query string: Which record shows the lower % prodrug remaining following incubation for 1 h in simulated gastric fluid pH 1.1: the first, P , or the second, Q ? Lab note: record the label of whichever item you select.
Result string: Q
(Q: 58%, P: 83%)
